Sourced from patent US20210145976A1

Molecular target: CD71 on SK-BR-3 cells (human, UniProt P02786 1-760)
Sequence (P02786 whole entry): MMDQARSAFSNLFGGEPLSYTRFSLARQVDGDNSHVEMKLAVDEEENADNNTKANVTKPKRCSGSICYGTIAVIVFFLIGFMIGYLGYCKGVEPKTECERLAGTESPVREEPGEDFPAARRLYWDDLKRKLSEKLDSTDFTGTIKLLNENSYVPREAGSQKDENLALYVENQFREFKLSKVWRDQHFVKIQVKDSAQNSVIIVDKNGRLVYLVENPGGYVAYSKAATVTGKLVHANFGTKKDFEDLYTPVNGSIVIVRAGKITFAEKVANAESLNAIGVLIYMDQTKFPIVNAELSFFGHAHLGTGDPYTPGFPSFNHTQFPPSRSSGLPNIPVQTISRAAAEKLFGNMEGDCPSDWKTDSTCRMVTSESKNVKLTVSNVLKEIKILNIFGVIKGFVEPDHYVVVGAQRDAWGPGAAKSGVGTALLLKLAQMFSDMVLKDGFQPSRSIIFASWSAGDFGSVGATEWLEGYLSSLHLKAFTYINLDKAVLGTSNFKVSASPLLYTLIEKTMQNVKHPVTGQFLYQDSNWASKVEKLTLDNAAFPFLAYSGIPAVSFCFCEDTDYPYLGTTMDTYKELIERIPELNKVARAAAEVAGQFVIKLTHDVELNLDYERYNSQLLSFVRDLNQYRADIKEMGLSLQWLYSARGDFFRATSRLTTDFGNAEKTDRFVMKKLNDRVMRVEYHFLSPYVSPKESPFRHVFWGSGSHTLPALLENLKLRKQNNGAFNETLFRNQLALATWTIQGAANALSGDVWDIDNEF
Test: cell-based or functional assay
measuredProperty: IC50, SKBR-3 viability, MMAF conjugate, first unlabelled column (+/- human transferrin) (nM)
# unit: nM | format: bare number

# count of solved cases: 3
binder	unitText	reading
SEQ ID NO 217 (designed binder, FN3 domain) MLPAPKNLVVSRVTEDSARLSWTAPDAAFDSFIIEYWEWYFAGEAIVLTVPGSERSYDLTGLKPGTEYTVWITGVKGGTWSEPLSAIFTT	nM	15.8
SEQ ID NO 257 (designed binder, FN3 domain) MLPAPKNLVVSRVTEDSARLSWTAPDAAFDSFHIVYHEPRPSGEAIVLTVPGSERSYDLTGLKPGTEYEVGIVSVKGGDLSVPLSAIFTT	nM	22
SEQ ID NO 95 (designed binder, FN3 domain) MLPAPKNLVVSRVTEDSARLSWTAPDAAFDSFRISYYEWYDLGEAIVLTVPGSERSYDLTGLKPGTEYWVDIAGVKGGYYSYPLSAIFTT	nM	28.3

Shifting focus to the binder that follows.
input: I have this binder here, SEQ ID NO 92 (designed binder, FN3 domain) MLPAPKNLVVSRVTEDSARLSWTAPDAAFDSFLIRYWEWYVLGEAIVLTVPGSERSYDLTGLKPGTEYYVEISGVKGGWQSWPLSAIFTT , and I need its recorded IC50, SKBR-3 viability, MMAF conjugate, first unlabelled column (+/- human transferrin).
output: 5.49
